# Tested on: TO-3-N3 (biotin conjugate)
# test name: pull-down binding Z-score (relative to library population); higher = stronger binding
# experimental setup: RNA library: Library-2
Here the recorded pull-down binding Z-score is given for each entry.
// return just the number, without any unit appended

GCCAUUUGUCAUGAUGGAAAAGCACACUUUCCUCGUGAAGGUGUCUUUGUUUCAAAUGGC : -1.16

// query Write down the reported pull-down binding Z-score of GUGAUAGAGCCAUGCCUAACAUGCUUAGAAUUAUGGCCUCAC , test system: TO-3-N3 (biotin conjugate).
// result 0.323

// query Now this one: UAGUUACACGGUGUUUAAACCGUGUUUGUACUA [SHAPE_invivo_SARS-CoV-2_Motif_139]
// result -0.83

* * *

# System: G-clamp-N3 (biotin conjugate)
# test name: pull-down binding Z-score (relative to library population); higher = stronger binding
# experimental setup: RNA library: Library-1 (pre-miRNA loops + repeats)
Label t when pull-down binding Z-score is at or above -0.2; otherwise label f.

// query Would you say GAGAAACUUGAGGUCUCUGGGAGUUGCUUAAACCAGUUGACCGUAACCUGGCCAGAGAAUUCUGAUAGUGUC [hsa-mir-6740] shows pull-down binding Z-score at minimum -0.2?
// result t

// query Can you handle GGGUCCUAAGGUGUGUCCUC [hsa-mir-1976] next?
// result f

// query Now give it for CCUCAAUCACUUGCCAGAGAGAUUGG [hsa-mir-1200] too.
// result f

// query Next entry: UAUAUACUGAUGUAAUUUUCCUUGGAUUUAUAUGCAGUACUGAG [hsa-mir-6130]
// result f

// query Try the sequence UUUGUCAUUAAAGUAAUGCAAA [hsa-mir-548m]
// result t

// query AAAUAAGCUCCAUAUCAAUGAGAAUUUCAAUGGGAUUAUGUG [hsa-mir-4791] ?
// result f

// query Same thing, different sequence: CUACUCAAGGCUAG [hsa-mir-4266]
// result t

// query Same question, UAGAGUAGGAGAGCCCACUGA [hsa-mir-6846] this time
// result t

// query Now give it for GAGACUUUGUGAUUUGUCUCCAAAGCCUC [hsa-mir-6862-2_6862-1] too.
// result f

// query # repeat for GUAGAUUUUAUGUCAC [hsa-mir-892b]
// result f

// query // same read-out, input: CAUGUGCUGAGUUCGUGCCAUAUG [hsa-mir-654]
// result t

// query # repeat for UCAGGCUUUAAUGUUUGAAGUAAUGUCAGU [hsa-mir-6874]
// result t

// query Subsequent entry: UGGUUUCACUA [hsa-mir-3713]
// result f

// query Okay, and AGGUUUAUGACUGGGCAUUUCUCACCCAAUGCCCAAUAUUGAACUU [hsa-mir-4431] ?
// result f

* * *

# System: TO-3-N3-2 (biotin conjugate)
# test name: pull-down binding Z-score (relative to library population); higher = stronger binding
# experimental setup: RNA library: Library-2
List of pull-down binding Z-score values.

// query I have this sequence here, GGAGAUCGUACC [hsa-mir-4430] , and I need its recorded pull-down binding Z-score.
// result -0.372

* * *

Recorded pull-down binding Z-score, one value per entry.
# Test system: TO-N3 (biotin conjugate)
# test name: pull-down binding Z-score (relative to library population); higher = stronger binding
# experimental setup: RNA library: Library-2
# respond with the number and nothing more

These recorded examples may help you get a feel for the data.
UGUCCGUGAUCCACAGACA : -0.9
AGUGGCCAAUUCCU [hsa-mir-4251] : -0.607
UAACAGUUACACCGGAAGCCAAUAUGGAUCAAGAAUCCUUUGGUGGUGCAUCGUGUUG : -0.9

// query Fill in the blank: the reported pull-down binding Z-score of CUGUGGUUUGCUGGCUGCCUCAG [hsa-mir-6736] is ____.
// result 0.467

// query Same thing, different sequence: GCAUGAUGUUUCAUCUGC
// result 0.951

* * *

# Test system: TO-N3-2 (biotin conjugate)
# test name: pull-down binding Z-score (relative to library population); higher = stronger binding
# experimental setup: RNA library: Library-2
readout label: pull-down binding Z-score
// keep it numeric: no unit symbol after the value

CACACACAAUCACCGUGUG [hsa-mir-3118-2_3118-3_3118-4] : -1.24

// query For TO-N3-2 (biotin conjugate), provide pull-down binding Z-score of CUCAUUGUUGAAUGGAAUGAGAU [hsa-mir-3145] please.
// result 0.348

// query Try the sequence UGUUCGCUUUAUUUAUGAUGAAUCA [hsa-mir-539]
// result -1.01

* * *

# Test system: TO-3-N3 (biotin conjugate)
# test name: pull-down binding Z-score (relative to library population); higher = stronger binding
# experimental setup: RNA library: Library-2
readout label: pull-down binding Z-score

The following sequences have reported results that may help.
GCCCUGGGCCGGGCGAUGUCCGCUUGGGGG [hsa-mir-6090] : 0.811
GGAUGAGAGAACUCAUCC [IAV_invivo_NP_5_Motif_6+IAV_invivo_NP_5_Motif_6] : -0.302
GCGCUACUGCAACGAUACCGAUACAAGCCUCACUCCCUUUCGGAUGGCUUAUUGUUGGCGUUGCACUUCUUGCUGUUUUUCAGAGCGC : -0.679
CAUUGUAAUAGUUCAUAUGGGCACUG [hsa-mir-3660] : -0.0141
CUAGUUGUGAUGCAAUCAUGACUAG : -0.351

// query Requested field: pull-down binding Z-score. Item: CAGCUGUUGUCUCCAGAGCAUUCCAGCUG [hsa-mir-191]
// result 0.371

* * *

# Tested on: TO-N3-2 (biotin conjugate)
# test name: pull-down binding Z-score (relative to library population); higher = stronger binding
# experimental setup: RNA library: Library-2
readout label: pull-down binding Z-score

Record excerpt, results attached:
AUGUUUAUUGUAAAGAUACUUU [hsa-mir-1305] : -0.121
GUCUCUAUAGAAAUAGAGAU : -1.36
GACAGGGAAAAGCACACAAGGAACUUGUC [hsa-mir-3909] : -0.0273
GUGAGCGCAGGUCUUUGGCAC [hsa-mir-4450] : 0.729
CCAUGGGACAGGAACAGGAUACACCAUGG [IAV_invivo_PB1_2_Motif_4+IAV_invivo_PB1_2_Motif_4] : 0.927

// query What value of pull-down binding Z-score has been reported for the following sequence? UCCCCAGAAGCUGAGGAUUAGGGGA [hsa-mir-6503]
// result -0.108

// query Then CUCGCUGGGAGGUGUGCUAUCGUCUUCCCUGGGAG [hsa-mir-3689d-2] ?
// result 0.541

// query Now give it for GGGUAGGGUUUGGGGGAGAGUGUGGGCUGGGGUUCAGGGACA [pre-miRNA-1229_SNP_FL] too.
// result 4.79

// query Would you mind doing GUCUGCCAAAACCUUGGCAGAC [hsa-mir-3913-1] as well?
// result -1.22

// query Try this sequence next: CAUUUCCUUCAUGAUUAGGAAUACUACUUUGAAAUG [hsa-mir-4712]
// result -0.896

// query Also check GCUUAUACGUGCCCUUGCU [hsa-mir-8075]
// result 0.504

// query Moving on to the next sequence: GGGCCACUGCCAGAAGACAAUGAACCAAGUGGUUAUGCCC [IAV_invivo_PB1_2_Motif_5+IAV_invivo_PB1_2_Motif_5]
// result 0.713

// query What about UGGAGCUAGACCACAUGGGUUCA [hsa-mir-5100] ?
// result 0.244

// query How about this sequence: CAGUGGCAUCUGUCAUUG [hsa-mir-4663]
// result -0.784

* * *

# Test system: TO-N3-2 (biotin conjugate)
# test name: pull-down binding Z-score (relative to library population); higher = stronger binding
# experimental setup: RNA library: Library-2
# cutoff -0.5 applies to pull-down binding Z-score; >= gives 1.0, < gives 0.0

GCCUCUCUGAGCAUGCAUUCCUGAGACUC [hsa-mir-5695] : 1.0

// query Test whether the sequence GGGGCGUUUAUGCAACCC [IAV_invivo_PB1_2_Motif_33+IAV_invivo_PB1_2_Motif_33] records pull-down binding Z-score of -0.5 or higher.
// result 1.0

// query Entry UGUUCGUUUUGCUCAUGUCGAAUC [hsa-mir-487b] please
// result 1.0

* * *

# Tested on: TO-N3-2 (biotin conjugate)
# test name: pull-down binding Z-score (relative to library population); higher = stronger binding
# experimental setup: RNA library: Library-2
Outcome label depends on pull-down binding Z-score relative to 0.8: at/above gives fulfilled, below gives not fulfilled.

// query In plain terms: is recorded pull-down binding Z-score at least 0.8 for CUUGCUGUGACAUGACAAAAAUAAG [hsa-mir-302d] ?
// result not fulfilled

// query Okay, and CGUUGAGUGGGCACCCGAGAAGCCAUCG [hsa-mir-425] ?
// result fulfilled

// query Note, next up: GGGGUGAAGAGGAUACUUACCUG [U1snRNP5ss-12]
// result not fulfilled

// query // next record CUUUCUGUUGUCUGAAAGAAAAGAAAA [hsa-mir-522]
// result not fulfilled

// query Field entry: GGGGAGAGGGACACGCCCUGGGCUCUGCCCAGGGUGCAGCCGGACUGACUGAG [hsa-mir-1225]
// result fulfilled

All values here come from the supplement of paper PMC11865577.
